Where these numbers come from: patent US20090017103A1

- Test system: bone sialoprotein II
- experiment notes: Western blot of bone sialoprotein II expression after exposure to ASOs
- Type: cell-based, human
- condition context: MDA-MB231^F (growing without FBS); single exposure; lipofectamine; 10 μM
Output Fulfilled for bone sialoprotein II expression in relation to untreated control (100%) not less than 90%; output Not fulfilled otherwise.

substance	class name
5′-TCACTGGTGGTGGTAGTAAT-3′ (antisense TCACTGGTGGTGGTAGTAAT; all phosphorothioate, sugars by position and methylation of C not given here) [ASO-BSPII-10]	Not fulfilled
5′-ATTCTTCATTGTTTTCTCCT-3 (antisense ATTCTTCATTGTTTTCTCCT; all phosphorothioate, sugars by position and methylation of C not given here) [ASO-BSPII-4]	Fulfilled
5′-ATTTTGGTGATTGCTTCCTC-3′ (antisense ATTTTGGTGATTGCTTCCTC; all phosphorothioate, sugars by position and methylation of C not given here) [ASO-BSPII-2]	Fulfilled
5′-ACTGGTGGTGGTAGTAATTC-3′ (antisense ACTGGTGGTGGTAGTAATTC; all phosphorothioate, sugars by position and methylation of C not given here) [ASO-BSPII-9]	Not fulfilled
5′-CTGCCTTCCGGTCTCTGTGG-3′ (antisense CTGCCTTCCGGTCTCTGTGG; all phosphorothioate, sugars by position and methylation of C not given here) [ASO-BSPII-8]	Fulfilled

###

- Test system: bone sialoprotein II
- experiment notes: Western blot of bone sialoprotein II expression after exposure to ASOs
- Format: cell-based, human
- condition context: MDA-MB435s; single exposure; lipofectamine; 10 μM
// bone sialoprotein II expression in relation to untreated control (100%) lookup, one value per entry
reported metric: bone sialoprotein II expression in relation to untreated control (100%)

substance	observed
5′-TGATTGCTTCCTCTGGCAGT-3′ (antisense TGATTGCTTCCTCTGGCAGT; all phosphorothioate, sugars by position and methylation of C not given here) [ASO-BSPII-1]	16
5′-CTTCATTGTTTTCTCCTTCA-3′ (antisense CTTCATTGTTTTCTCCTTCA; all phosphorothioate, sugars by position and methylation of C not given here) [ASO-BSPII-3]	22
5′-ATTTTGGTGATTGCTTCCTC-3′ (antisense ATTTTGGTGATTGCTTCCTC; all phosphorothioate, sugars by position and methylation of C not given here) [ASO-BSPII-2]	26
5′-ACTGGTGGTGGTAGTAATTC-3′ (antisense ACTGGTGGTGGTAGTAATTC; all phosphorothioate, sugars by position and methylation of C not given here) [ASO-BSPII-9]	49
5′-GCGAGGGAGTTCTTCTTCTA-3′ (GCGAGGGAGTTCTTCTTCTA; phosphorothioate backbone, further chemistry not given here) [NSO, reference compound]	65
5′-CTTCATCACTTTCCTTCTCT-3′ (antisense CTTCATCACTTTCCTTCTCT; all phosphorothioate, sugars by position and methylation of C not given here) [ASO-BSPII-5]	41
5′-ATTCTTCATTGTTTTCTCCT-3 (antisense ATTCTTCATTGTTTTCTCCT; all phosphorothioate, sugars by position and methylation of C not given here) [ASO-BSPII-4]	26
5′-CTGCCTTCCGGTCTCTGTGG-3′ (antisense CTGCCTTCCGGTCTCTGTGG; all phosphorothioate, sugars by position and methylation of C not given here) [ASO-BSPII-8]	32
5′-TCACTGGTGGTGGTAGTAAT-3′ (antisense TCACTGGTGGTGGTAGTAAT; all phosphorothioate, sugars by position and methylation of C not given here) [ASO-BSPII-10]	39

###

- System: bone sialoprotein II
- experiment notes: Western blot of bone sialoprotein II expression after exposure to ASOs
- Assay type: cell-based, human
- condition context: MDA-MB231; twofold exposure; lipofectamine; 10 μM
// bone sialoprotein II expression in relation to untreated control (100%) lookup, one value per entry
reported metric: bone sialoprotein II expression in relation to untreated control (100%)

substance	quantity unit	observed
5′-CTTCATCACTTTCCTTCTCT-3′ (antisense CTTCATCACTTTCCTTCTCT; all phosphorothioate, sugars by position and methylation of C not given here) [ASO-BSPII-5]	%	46
5′-CTGCCTTCCGGTCTCTGTGG-3′ (antisense CTGCCTTCCGGTCTCTGTGG; all phosphorothioate, sugars by position and methylation of C not given here) [ASO-BSPII-8]	%	25
5′-GCGAGGGAGTTCTTCTTCTA-3′ (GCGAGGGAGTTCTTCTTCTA; phosphorothioate backbone, further chemistry not given here) [NSO, reference compound]	%	97

###

- Tested on: bone sialoprotein II
- experiment notes: Western blot of bone sialoprotein II expression after exposure to ASOs
- Type: cell-based, human
- condition context: MDA-MB231^F (growing without FBS); single exposure; lipofectamine; 10 μM
reported metric: bone sialoprotein II expression in relation to untreated control (100%)

substance	observed
5′-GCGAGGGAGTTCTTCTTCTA-3′ (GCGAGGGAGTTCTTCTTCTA; phosphorothioate backbone, further chemistry not given here) [NSO, reference compound]	100
5′-TGATTGCTTCCTCTGGCAGT-3′ (antisense TGATTGCTTCCTCTGGCAGT; all phosphorothioate, sugars by position and methylation of C not given here) [ASO-BSPII-1]	58
5′-CTTCATTGTTTTCTCCTTCA-3′ (antisense CTTCATTGTTTTCTCCTTCA; all phosphorothioate, sugars by position and methylation of C not given here) [ASO-BSPII-3]	93
5′-CTTCATCACTTTCCTTCTCT-3′ (antisense CTTCATCACTTTCCTTCTCT; all phosphorothioate, sugars by position and methylation of C not given here) [ASO-BSPII-5]	101

###

// osteonectin expression in relation to untreated control (100%) lookup, one value per entry
- Test system: osteonectin
- experiment notes: Western blot of osteonectin expression after exposure to ASOs
- Format: cell-based, human
- condition context: MDA-MB231; single exposure; lipofectamine; 10 μM
reported metric: osteonectin expression in relation to untreated control (100%)

substance	observed
5′-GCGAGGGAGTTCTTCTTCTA-3′ (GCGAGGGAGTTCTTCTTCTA; phosphorothioate backbone, further chemistry not given here) [NSO, reference compound]	94
5′-ATGCGCAGGGGGAATTCGGT (antisense ATGCGCAGGGGGAATTCGGT; all phosphorothioate, sugars by position and methylation of C not given here) [ASO-ON-4]	50
5′-GGGGGCTGGGCAGCTGGTGG-3′ (antisense GGGGGCTGGGCAGCTGGTGG; all phosphorothioate, sugars by position and methylation of C not given here) [ASO-ON-3]	25
